FYI, the data here is from patent US9090593B2.

tested.system: full length recombinant Pim-2 protein (Homo sapiens)
Construct: by full length recombinant Pim-1, Pim-2, or Pim-3 protein; hexahistidine tag followed by a thrombin cleavage site (N); made in house; host or cells: Sf9 (baculovirus) or E. coli (pET28)
Sequence (Q9P1W9 whole entry): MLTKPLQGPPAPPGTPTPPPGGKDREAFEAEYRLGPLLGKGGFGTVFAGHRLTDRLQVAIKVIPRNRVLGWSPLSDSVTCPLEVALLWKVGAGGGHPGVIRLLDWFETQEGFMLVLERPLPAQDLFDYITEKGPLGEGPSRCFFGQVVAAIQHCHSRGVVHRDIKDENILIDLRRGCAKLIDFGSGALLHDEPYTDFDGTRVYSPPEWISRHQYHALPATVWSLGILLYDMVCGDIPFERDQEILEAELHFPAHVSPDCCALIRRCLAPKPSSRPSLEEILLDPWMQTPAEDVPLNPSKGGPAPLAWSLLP
assay.info: Pim-2 enzyme assay (HTRF, phosphorylation of biotinylated-BAD (S112) peptide)
Type: biochemical
condition.context: read-out: Pim2_IC50
readout.type: pIC50
Conceptually, pIC50 converts a concentration in mol/L into minus its log10.

q: Under full length recombinant Pim-2 protein (Homo sapiens): report pIC50 of c1coc(-c2ccc3[nH]nc(-c4cncc(N[C@@H]5CCCNC5)n4)c3c2)n1 [Example 541] .
a: 7.62

q: Under full length recombinant Pim-2 protein (Homo sapiens): report pIC50 of COc1cccc(-c2ccc3[nH]cc(-c4cncc(O[C@@H]5CCCNC5)n4)c3c2)c1 [Example 320] .
a: 7.52

q: Under full length recombinant Pim-2 protein (Homo sapiens): report pIC50 of c1cc2[nH]nc(-c3cncc(C4CC4)n3)c2cc1-c1cncc(C2CC2)n1 [Example 244] .
a: 8.52

q: Under full length recombinant Pim-2 protein (Homo sapiens): report pIC50 of Fc1cccc(F)c1-c1ccc2[nH]cc(-c3cncc(OC4CNCCC45CC5)n3)c2c1 (single isomer, unassigned) [Example 438] .
a: 8.70

q: Under full length recombinant Pim-2 protein (Homo sapiens): report pIC50 of FC(F)Oc1cccc(-c2ccc3[nH]cc(-c4cncc(O[C@@H]5CCCNC5)n4)c3c2)c1 [Example 344] .
a: 7.17

q: Under full length recombinant Pim-2 protein (Homo sapiens): report pIC50 of CC1CNCC(Oc2cncc(-c3n[nH]c4ccc(-c5c(F)cccc5F)cc34)n2)C1 (single isomer, unassigned) [Example 469] .
a: 8.40

q: Under full length recombinant Pim-2 protein (Homo sapiens): report pIC50 of Nc1cncc(-c2ccc3[nH]nc(-c4cncc(N5CCC(N)CC5)n4)c3c2)n1 [Example 508] .
a: 9.00
